Target: NEK2 (human)
Assay: radiometric filter-binding kinase assay, Kinase HotSpot
Details: compound 0.5 µM; ATP 10 µM
recorded endpoint: residual activity (%)
Please reply with the bare figure in % and do not write the unit itself.

Lookup result for `Nc1ncnc2[nH]nc(Nc3ccc(F)cc3)c12` ; measured residual activity: 89.3

Lookup result for `CC(=O)c1ccc(N2CCOCC2)cc1O` ; measured residual activity: 81.3

Continuing:
Lookup result for `Nc1ncnc2c1c(-c1ccc(Oc3ccccc3)cc1)cn2C1CCCC1` ; measured residual activity: 88.5

Lookup result for `CCN(CC)CCNC(=O)c1c(C)[nH]c(/C=C2\C(=O)Nc3ccc(Cl)cc32)c1C` ; measured residual activity: 77.2

Lookup result for `CCN(CC)CCNC(=O)c1c(C)[nH]c(/C=C2\C(=O)Nc3ccc(F)cc32)c1C` ; measured residual activity: 106

Lookup result for `CCC(=O)Nc1ccc2ncnc(Nc3cccc(Br)c3)c2c1` ; measured residual activity: 87.5

Lookup result for `Cc1[nH]c(/C=C2\C(=O)Nc3ccc(S(=O)(=O)N(C)c4cccc(Cl)c4)cc32)c(C)c1C(=O)N1CCN(C)CC1` ; measured residual activity: 50.8

Lookup result for `Cc1ccc(NC2=CC(=O)c3sc(C)nc3C2=O)cc1` ; measured residual activity: 96.4

Lookup result for `O=C1Nc2ccc(Cl)cc2/C1=C/c1cc(Cl)c(O)c(Cl)c1` ; measured residual activity: 86

Lookup result for `CC[n+]1c(/C=C/N(C)c2ccccc2)n(-c2ccccc2)c2ccc(-c3nc4ccccc4s3)cc21` ; measured residual activity: 100

----------
Target: LRRK2 (human) (UniProt Q5S007)
Sequence (Q5S007 whole entry, looked up): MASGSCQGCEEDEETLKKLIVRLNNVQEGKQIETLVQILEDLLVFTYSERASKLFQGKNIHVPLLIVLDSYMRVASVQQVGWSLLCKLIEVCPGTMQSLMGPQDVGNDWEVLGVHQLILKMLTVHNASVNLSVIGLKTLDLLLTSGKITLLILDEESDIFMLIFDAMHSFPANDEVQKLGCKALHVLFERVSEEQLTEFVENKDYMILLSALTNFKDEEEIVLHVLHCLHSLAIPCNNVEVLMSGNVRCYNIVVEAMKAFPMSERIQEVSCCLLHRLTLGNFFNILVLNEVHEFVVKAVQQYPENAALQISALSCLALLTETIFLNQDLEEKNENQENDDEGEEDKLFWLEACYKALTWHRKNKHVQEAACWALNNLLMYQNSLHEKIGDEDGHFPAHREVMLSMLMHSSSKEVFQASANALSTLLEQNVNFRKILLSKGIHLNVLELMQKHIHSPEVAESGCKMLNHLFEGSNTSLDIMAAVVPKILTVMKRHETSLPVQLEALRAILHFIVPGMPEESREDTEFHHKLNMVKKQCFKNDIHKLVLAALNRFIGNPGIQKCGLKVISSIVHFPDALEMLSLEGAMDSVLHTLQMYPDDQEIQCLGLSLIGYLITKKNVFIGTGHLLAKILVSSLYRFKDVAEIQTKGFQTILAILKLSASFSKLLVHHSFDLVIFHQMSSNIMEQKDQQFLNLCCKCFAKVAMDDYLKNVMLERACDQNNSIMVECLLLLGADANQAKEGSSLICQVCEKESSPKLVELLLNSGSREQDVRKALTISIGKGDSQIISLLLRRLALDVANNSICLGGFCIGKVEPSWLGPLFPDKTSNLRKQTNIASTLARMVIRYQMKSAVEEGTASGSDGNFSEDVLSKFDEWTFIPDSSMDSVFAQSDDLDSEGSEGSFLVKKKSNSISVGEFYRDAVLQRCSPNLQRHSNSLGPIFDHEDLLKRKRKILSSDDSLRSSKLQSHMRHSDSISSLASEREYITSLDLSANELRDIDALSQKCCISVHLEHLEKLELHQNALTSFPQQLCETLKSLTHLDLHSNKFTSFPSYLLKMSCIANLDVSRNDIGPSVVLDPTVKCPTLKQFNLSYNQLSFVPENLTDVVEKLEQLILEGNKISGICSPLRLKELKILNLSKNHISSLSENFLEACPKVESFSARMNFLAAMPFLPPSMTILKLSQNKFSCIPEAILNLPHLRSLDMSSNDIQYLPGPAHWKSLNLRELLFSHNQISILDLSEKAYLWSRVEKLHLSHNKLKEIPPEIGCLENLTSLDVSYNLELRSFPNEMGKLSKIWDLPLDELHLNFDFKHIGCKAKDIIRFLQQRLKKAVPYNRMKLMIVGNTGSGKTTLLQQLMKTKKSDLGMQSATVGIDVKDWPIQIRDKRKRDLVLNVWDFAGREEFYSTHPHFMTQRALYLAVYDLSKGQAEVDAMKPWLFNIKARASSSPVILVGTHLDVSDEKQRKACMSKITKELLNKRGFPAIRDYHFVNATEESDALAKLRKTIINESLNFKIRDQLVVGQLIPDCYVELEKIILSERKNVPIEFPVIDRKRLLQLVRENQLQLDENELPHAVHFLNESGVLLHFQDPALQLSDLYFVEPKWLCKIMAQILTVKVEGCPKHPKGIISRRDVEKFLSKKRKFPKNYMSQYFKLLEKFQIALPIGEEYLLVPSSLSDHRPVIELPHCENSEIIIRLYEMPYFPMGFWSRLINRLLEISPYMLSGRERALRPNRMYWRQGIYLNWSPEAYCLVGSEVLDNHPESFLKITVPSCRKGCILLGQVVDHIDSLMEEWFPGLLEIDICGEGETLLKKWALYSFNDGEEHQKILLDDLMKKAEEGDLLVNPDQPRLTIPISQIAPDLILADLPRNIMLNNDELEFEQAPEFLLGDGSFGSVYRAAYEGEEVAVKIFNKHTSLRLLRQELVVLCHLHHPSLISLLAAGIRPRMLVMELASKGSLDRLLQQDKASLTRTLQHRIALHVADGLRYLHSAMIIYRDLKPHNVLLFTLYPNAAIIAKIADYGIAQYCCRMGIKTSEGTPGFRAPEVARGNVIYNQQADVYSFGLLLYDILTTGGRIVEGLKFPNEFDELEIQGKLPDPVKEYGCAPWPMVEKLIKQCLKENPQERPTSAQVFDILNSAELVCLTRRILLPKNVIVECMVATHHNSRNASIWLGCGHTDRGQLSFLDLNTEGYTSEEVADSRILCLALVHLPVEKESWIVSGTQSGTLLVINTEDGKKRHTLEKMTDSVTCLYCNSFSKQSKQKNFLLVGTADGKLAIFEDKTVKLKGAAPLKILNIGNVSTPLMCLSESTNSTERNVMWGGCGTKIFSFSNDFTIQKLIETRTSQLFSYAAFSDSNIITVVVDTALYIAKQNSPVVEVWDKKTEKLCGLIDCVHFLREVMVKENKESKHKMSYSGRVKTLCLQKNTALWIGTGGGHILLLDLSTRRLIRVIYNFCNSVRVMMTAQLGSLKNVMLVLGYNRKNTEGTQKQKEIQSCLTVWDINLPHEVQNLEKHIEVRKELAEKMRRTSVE
Assay: radiometric filter-binding kinase assay, Kinase HotSpot
Settings: compound 0.5 µM; ATP 10 µM
recorded endpoint: residual activity (%)
Please reply with the bare figure in % and do not write the unit itself.

Below, each entry is followed by its recorded residual activity result.
Lookup result for `Cc1ccc(Nc2nccc(N(C)c3ccc4c(C)n(C)nc4c3)n2)cc1S(N)(=O)=O` ; measured residual activity: 109

Lookup result for `O=S(=O)(c1cccc2cnccc12)N1CCCNCC1` ; measured residual activity: 94.2

Lookup result for `c1ccc(-c2n[nH]c3c2oc2ccccc23)cc1` ; measured residual activity: 91.4

Lookup result for `O=C1NC(=O)C(c2cn(CCCn3ccnc3)c3ccccc23)=C1Nc1ccccc1` ; measured residual activity: 43.6

Continuing:
Lookup result for `CCOC(=O)c1c(C)[nH]c(/C=C2\C(=O)Nc3ccccc32)c1C` ; measured residual activity: 28.6

----------
Target: AURKC (human) (UniProt Q9UQB9)
Sequence (Q9UQB9 whole entry, looked up): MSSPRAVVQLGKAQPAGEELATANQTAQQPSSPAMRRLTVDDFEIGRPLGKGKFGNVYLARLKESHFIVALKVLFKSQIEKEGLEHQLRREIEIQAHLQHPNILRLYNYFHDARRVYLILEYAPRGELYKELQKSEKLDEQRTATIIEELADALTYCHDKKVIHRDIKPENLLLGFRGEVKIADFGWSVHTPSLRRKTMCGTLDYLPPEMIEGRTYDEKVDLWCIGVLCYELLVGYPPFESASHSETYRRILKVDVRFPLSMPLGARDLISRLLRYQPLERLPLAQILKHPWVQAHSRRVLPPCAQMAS
Test: radiometric filter-binding kinase assay, Kinase HotSpot
Details: compound 0.5 µM; ATP 10 µM
Please assign not fulfilled whenever residual activity is at or above 90%, and fulfilled whenever it is below.

Lab log: compare recorded residual activity with 90%; is it strictly lower for `O=S(=O)(c1cccc2cnccc12)N1CCCNCC1` ?
not fulfilled

Lab log: compare recorded residual activity with 90%; is it strictly lower for `CCN(CC)CCNC(=O)c1c(C)[nH]c(/C=C2\C(=O)Nc3ccc(F)cc32)c1C` ?
fulfilled

Lab log: compare recorded residual activity with 90%; is it strictly lower for `COc1ccc2c(c[n+](C)c3c4cc5c(cc4ccc23)OCO5)c1OC` ?
not fulfilled

Lab log: compare recorded residual activity with 90%; is it strictly lower for `COc1ccc(COc2ccc(Cc3cnc(N)nc3N)cc2OC)cc1` ?
not fulfilled

Lab log: compare recorded residual activity with 90%; is it strictly lower for `N#C/C(=C(/N)Sc1ccc(N)cc1)c1ccccc1C(F)(F)F` ?
not fulfilled

Okay, now this compound:
Lab log: compare recorded residual activity with 90%; is it strictly lower for `O=C1NC(=O)/C(=C/c2ccc3c(c2)OC(F)(F)O3)S1` ?
not fulfilled

----------
Property: residual activity; scope: individual compounds
Biological target: HIPK2 (human)
Assay: radiometric filter-binding kinase assay, Kinase HotSpot
Conditions: compound 0.5 µM; ATP 10 µM
Please reply with the bare figure in % and do not write the unit itself.

Below, each entry is followed by its recorded residual activity result.
The value of residual activity recorded for `CCN(CC)C(=O)c1ccc(Nc2nc(OCC3CCCCC3)c3nc[nH]c3n2)cc1` when tested on HIPK2 (human) reads 92.4

The value of residual activity recorded for `CC[n+]1c(/C=C/N(C)c2ccccc2)n(-c2ccccc2)c2ccc(-c3nc4ccccc4s3)cc21` when tested on HIPK2 (human) reads 103

The value of residual activity recorded for `O=C1NC(=O)/C(=C/c2ccc3c(c2)OC(F)(F)O3)S1` when tested on HIPK2 (human) reads 104

Continuing:
The value of residual activity recorded for `COc1ccc(COc2ccc(Cc3cnc(N)nc3N)cc2OC)cc1` when tested on HIPK2 (human) reads 103

The value of residual activity recorded for `Cc1ccc(NC2=CC(=O)c3sc(C)nc3C2=O)cc1` when tested on HIPK2 (human) reads 98.5

The value of residual activity recorded for `N#C/C(=C(/N)Sc1ccc(N)cc1)c1ccccc1C(F)(F)F` when tested on HIPK2 (human) reads 115

The value of residual activity recorded for `COc1cc2ncnc(Nc3cccc(Cl)c3)c2cc1OC` when tested on HIPK2 (human) reads 88.8

The value of residual activity recorded for `O=C1NC(=O)C(c2cn(CCCn3ccnc3)c3ccccc23)=C1Nc1ccccc1` when tested on HIPK2 (human) reads 87.6

The value of residual activity recorded for `Nc1ncnc2[nH]nc(Nc3ccc(F)cc3)c12` when tested on HIPK2 (human) reads 106

The value of residual activity recorded for `O=C1NC(=O)c2c1c1c3ccccc3n3c1c1c2c2ccccc2n1C1CCC3O1` when tested on HIPK2 (human) reads 32.6

The value of residual activity recorded for `Cc1ccc(S(=O)(=O)/C=C/C#N)cc1` when tested on HIPK2 (human) reads 83.9

----------
Target: INSR (human)
Test: radiometric filter-binding kinase assay, Kinase HotSpot
Conditions: compound 0.5 µM; ATP 10 µM
The label depends only on residual activity: Met if it is at least 90%, Not met if it is smaller.

Answer whether residual activity of `c1ccc(-c2n[nH]cc2-c2ccnc3ccccc23)nc1` is greater than or equal to 90%.
Not met

Okay, now this compound:
Answer whether residual activity of `Cc1ccc(Nc2nccc(N(C)c3ccc4c(C)n(C)nc4c3)n2)cc1S(N)(=O)=O` is greater than or equal to 90%.
Met

----------
Target: RIPK2 (human) (UniProt O43353)
Sequence (O43353 whole entry, looked up): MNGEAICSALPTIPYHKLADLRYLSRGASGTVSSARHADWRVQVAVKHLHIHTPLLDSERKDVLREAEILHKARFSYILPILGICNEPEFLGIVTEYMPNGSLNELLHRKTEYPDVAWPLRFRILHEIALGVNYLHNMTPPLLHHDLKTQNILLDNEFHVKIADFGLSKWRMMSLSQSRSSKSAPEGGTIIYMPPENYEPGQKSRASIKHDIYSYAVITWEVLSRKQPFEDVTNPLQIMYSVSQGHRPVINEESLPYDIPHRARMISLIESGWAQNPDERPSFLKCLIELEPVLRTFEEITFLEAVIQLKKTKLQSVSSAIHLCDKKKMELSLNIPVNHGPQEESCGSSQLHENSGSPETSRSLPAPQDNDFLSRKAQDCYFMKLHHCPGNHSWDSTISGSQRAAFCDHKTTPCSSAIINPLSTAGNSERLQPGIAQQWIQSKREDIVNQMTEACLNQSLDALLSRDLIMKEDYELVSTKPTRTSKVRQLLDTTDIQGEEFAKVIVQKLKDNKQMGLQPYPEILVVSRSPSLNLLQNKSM
Test: radiometric filter-binding kinase assay, Kinase HotSpot
Conditions: compound 0.5 µM; ATP 10 µM
Property: residual activity; scope: individual compounds

Below, each entry is followed by its recorded residual activity result.
Lookup result for `COc1cc2ncnc(Nc3cccc(Cl)c3)c2cc1OC` ; measured residual activity: 45.4%

Lookup result for `CCN(CC)C(=O)c1ccc(Nc2nc(OCC3CCCCC3)c3nc[nH]c3n2)cc1` ; measured residual activity: 97.2%

Lookup result for `O=S(=O)(c1cccc2cnccc12)N1CCCNCC1` ; measured residual activity: 86.4%

Continuing:
Lookup result for `c1ccc(-c2n[nH]cc2-c2ccnc3ccccc23)nc1` ; measured residual activity: 64.7%

Lookup result for `O=C(Nc1cccc(Nc2nccc(Nc3cccc(C(F)(F)F)c3)n2)c1)C1CC1` ; measured residual activity: 81.6%

Lookup result for CO[C@H]1CC2CC[C@@H](C)[C@@](O)(O2)C(=O)C(=O)N2CCCC[C@H]2C(=O)OC([C@H](C)C[C@@H]2CC[C@@H](O)[C@H](OC)C2)CC(=O)[C@H](C)/C=C(\C)[C@@H](O)[C@@H](OC)C(=O)[C@H](C)C[C@H](C)/C=C/C=C/C=C/1C (stereo partly specified) ; measured residual activity: 90.5%

Lookup result for `O=C1NC(=O)/C(=C/c2ccc3c(c2)OC(F)(F)O3)S1` ; measured residual activity: 88.2%

Lookup result for `CNC(=O)c1cc(Oc2ccc(NC(=O)Nc3ccc(Cl)c(C(F)(F)F)c3)cc2)ccn1` ; measured residual activity: 86.2%

Lookup result for `Nc1ncnc2c1c(-c1ccc(Oc3ccccc3)cc1)cn2C1CCCC1` ; measured residual activity: 28.6%

Lookup result for `CC(=O)c1ccc(N2CCOCC2)cc1O` ; measured residual activity: 103%

----------
Biological target: AXL (human) (UniProt P30530)
Sequence (P30530 whole entry, looked up): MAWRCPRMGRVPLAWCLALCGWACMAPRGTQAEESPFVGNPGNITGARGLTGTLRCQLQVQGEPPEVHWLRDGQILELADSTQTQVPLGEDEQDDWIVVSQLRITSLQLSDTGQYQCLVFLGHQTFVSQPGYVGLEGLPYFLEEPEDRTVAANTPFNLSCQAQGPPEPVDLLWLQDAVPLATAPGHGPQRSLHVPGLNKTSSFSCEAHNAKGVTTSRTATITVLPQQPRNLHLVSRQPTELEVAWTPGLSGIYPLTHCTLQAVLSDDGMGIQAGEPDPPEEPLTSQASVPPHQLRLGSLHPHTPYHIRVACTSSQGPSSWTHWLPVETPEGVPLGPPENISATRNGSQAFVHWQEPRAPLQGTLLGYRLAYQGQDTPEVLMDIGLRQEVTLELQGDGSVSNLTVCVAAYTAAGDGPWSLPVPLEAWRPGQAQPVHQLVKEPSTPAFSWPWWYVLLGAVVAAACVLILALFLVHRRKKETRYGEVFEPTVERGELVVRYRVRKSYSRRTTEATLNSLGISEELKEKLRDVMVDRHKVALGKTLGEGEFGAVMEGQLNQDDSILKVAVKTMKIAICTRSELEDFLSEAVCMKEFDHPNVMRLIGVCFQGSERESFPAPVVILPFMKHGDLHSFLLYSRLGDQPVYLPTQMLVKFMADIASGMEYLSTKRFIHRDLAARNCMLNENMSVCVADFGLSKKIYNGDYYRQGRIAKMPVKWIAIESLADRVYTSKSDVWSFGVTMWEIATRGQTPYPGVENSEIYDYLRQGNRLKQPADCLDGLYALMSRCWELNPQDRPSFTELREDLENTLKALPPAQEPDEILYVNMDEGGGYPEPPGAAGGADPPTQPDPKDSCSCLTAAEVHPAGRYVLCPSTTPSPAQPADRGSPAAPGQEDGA
Assay: radiometric filter-binding kinase assay, Kinase HotSpot
Details: compound 0.5 µM; ATP 10 µM
recorded endpoint: residual activity (%)
Please reply with the bare figure in % and do not write the unit itself.

Below, each entry is followed by its recorded residual activity result.
Lookup result for `Oc1cccc(-c2nc(N3CCOCC3)c3oc4ncccc4c3n2)c1` ; measured residual activity: 105

Lookup result for `Nc1ccc2ncnc(NCCc3ccc(Oc4ccccc4)cc3)c2c1` ; measured residual activity: 96.1

Lookup result for `N#CC(C#N)=C(N)/C(C#N)=C/c1ccc(O)cc1` ; measured residual activity: 93.7

Continuing:
Lookup result for `CC(C)N(CCC(=O)c1ccc2ccccc2c1)Cc1ccccc1` ; measured residual activity: 108

Lookup result for `O=C(Nc1cccc(Nc2nccc(Nc3cccc(C(F)(F)F)c3)n2)c1)C1CC1` ; measured residual activity: 104

Lookup result for `CCOC(=O)c1c(C)[nH]c(/C=C2\C(=O)Nc3ccccc32)c1C` ; measured residual activity: 88.9

Lookup result for `CCN(CC)C(=O)c1ccc(Nc2nc(OCC3CCCCC3)c3nc[nH]c3n2)cc1` ; measured residual activity: 80.8
